Listed next: entries and their corresponding z-score.
Experiment: E. coli acrAB mutant growth effects, primary screen, E. coli filamentation inducers, strain DRC39, OD650, 48 h (AID 1179);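 note: screen aims at cell division blockers that make cells filament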
Details: E. coli DRC39 delta-acrAB growth, higher = more signal, called active from +8 up or from −8 down
Active and inactive are the calls of the source.

Use the examples below as a reference point.
# MOLECULE, z-score
records = [
    ("COc1ccc(C(O)C2C=CC3C(=O)N(c4ccccc4)C(=O)C3N2Nc2ccc([N+](=O)[O-])cc2)cc1 (stereo not drawn)", "-0.996 (inactive)"),
    ("O=C1C2C=CC(C(O)c3ccc(F)cc3)N(n3cnnc3)C2C(=O)N1Cc1ccccc1 (stereo not drawn)", "-0.434 (inactive)"),
    ("CC(C)(C)OC(=O)CC[C@]1(C(=O)NCC(O)CO)N=C(c2ccc(OCCCO)cc2)O[C@H]1c1ccccc1 (stereo partly drawn)", "0.419 (inactive)"),
    ("O=C1NC(=O)C2C1C=CC(C(O)c1ccco1)N2Nc1ccccn1 (stereo not drawn)", "-0.21 (inactive)"),
    ("CC(C)(C)N1CC=CC23O[C@@H]4C=CCOC(=O)[C@@H]4[C@H]2C(=O)N(CCCCCCO)[C@@H]3C1=O (stereo partly drawn)", "0.254 (inactive)"),
]

Query :: Name the recorded z-score for C=CCN1C(=O)[C@@]2(O[C@@H](CCn3cc([C@H](O)c4ccccc4)nn3)[C@H]([Si](C)(C)c3ccc(OC)cc3)[C@H]2C)c2cc(N3CCC3=O)ccc21 .
Result :: 0.477 (inactive)

Query :: Name the recorded z-score for OCCCC1=CC(c2ccc(CN3CCCC3)cc2)N(Cc2sc3ccccc3c2Cl)CC1 (stereo not drawn) .
Result :: -1.05 (inactive)

Query :: Name the recorded z-score for O=C1OCC=C[C@H]2OC34C=CCN(c5ccc(Cl)cc5)C(=O)[C@H]3N(CCO)C(=O)[C@@H]4[C@@H]12 (stereo partly drawn) .
Result :: 1 (inactive)

----------
Assay: small-molecule microarray binders of probe aCHRDL2, primary screen, biochemical, biotinylated probe, 635/667 nm fluorescence (AID 1100)
Conditions: higher = more signal
PARAMETER MEASURED: composite z-score

# COMPOUND, composite z-score
measured = [
    ("C=CCC(OC(C)=O)[C@@H]1[C@@H](N(Cc2cccc3ccccc23)C(=O)Cc2ccc(OC)cc2)c2cc(OCCCO)ccc2N1C(=O)c1ccc2ccccc2n1 (some centres not stated)", 0.144),
]

Query :: Name the recorded composite z-score for COc1ccc(CN(C2=CC[C@@]3(C(N)=O)C(=O)C(Cl)=C(Cl)C(=O)[C@@]3(C#N)C2)S(=O)(=O)c2ccc(Br)cc2)cc1 .
Result :: 0.84

Query :: Name the recorded composite z-score for CCOC(=O)C[C@H]1[C@H](OC(=O)Cc2ccc3c(c2)OCO3)[C@@H](NC(=O)Cc2ccc(OC)cc2)c2cc(OCCCO)ccc2N1C(=O)c1ccc2ccccc2n1 .
Result :: -0.265

Query :: Name the recorded composite z-score for CO[C@H]1O[C@H](CO)[C@@H](OC(=O)Nc2ccccc2-c2ccccc2)[C@H](OC(=O)Nc2ccc3c(c2)OCO3)[C@H]1OC(=O)Nc1ccc2c(c1)OCO2 .
Result :: 0.485

Query :: Name the recorded composite z-score for Cn1cccc1C(O)C1C=CC2C(=O)NC(=O)C2N1Nc1ccc(Cl)cc1Cl (configuration not stated) .
Result :: 1.33

Query :: Name the recorded composite z-score for CCCCC(=C=CC[C@@H](O)c1ccccc1OCCO)C[C@@H](O)COCc1ccccc1 .
Result :: 0.142

Query :: Name the recorded composite z-score for O=C(NCC(F)(F)F)[C@@H]1c2ccccc2C(=O)N(Cc2cc(F)cc(C(F)(F)F)c2)[C@H]1c1ccc(CO)cc1 .
Result :: 0.941

----------
Assay: A549 lung cancer cell viability effects, profiling panel, resazurin fluorescence, 24 h, PK04 Diversity Set (AID 1171); note: test concentration not given here
Settings: higher = more signal, called active from +8 up or from −8 down
Param threshold (0.05) applies to z-score; output MET when value >= threshold, NOT MET when value < threshold.

Query :: Reported z-score at or above 0.05? CC(C)(C)N1CC=CC23O[C@@H]4C=CCOC(=O)[C@@H]4[C@H]2C(=O)N(CCCCCCO)[C@@H]3C1=O (some centres undefined)
Result :: NOT MET

Query :: Reported z-score at or above 0.05? COC(=O)[C@@]1(Cc2ccc(OC)cc2)[C@H]2c3cc(C(=O)N(C)C)n(Cc4ccc(Cl)c(C(F)(F)F)c4)c3C[C@H]2CN1C(=O)c1ccccc1
Result :: NOT MET

Query :: Reported z-score at or above 0.05? COc1ccc(NC(=O)O[C@H]2[C@H](OC(=O)Nc3ccccc3)[C@@H](OC(=O)Nc3ccccc3)[C@@H](OC)O[C@@H]2CO)cc1
Result :: NOT MET

Query :: Reported z-score at or above 0.05? O=C(NCC(F)(F)F)[C@@H]1c2ccccc2C(=O)N(Cc2ccc(OC(F)(F)F)cc2)[C@H]1c1ccc(CO)cc1
Result :: MET

Query :: Reported z-score at or above 0.05? CC(CO)N1C(=O)[C@@H]2[C@H]3C(=O)OCC=C[C@H]3OC23C=CCN(CCN2CCOCC2)C(=O)[C@@H]13 (some centres undefined)
Result :: NOT MET

Query :: Reported z-score at or above 0.05? CC(C)[Si](C#C[Si](C(C)C)(C(C)C)C(C)C)(O[C@H](C)c1cn([C@H](CO)Cc2ccccc2)nn1)C(C)C
Result :: MET

Query :: Reported z-score at or above 0.05? O=C1OCC=C[C@H]2OC34C=CCN(c5ccc(Cl)cc5)C(=O)[C@H]3N(CCO)C(=O)[C@@H]4[C@@H]12 (some centres undefined)
Result :: NOT MET

Query :: Reported z-score at or above 0.05? COc1ccc(-c2nc(-c3ccccc3)c3c(c2C)CO[Si]3(C(C)C)C(C)C)cn1
Result :: MET

Query :: Reported z-score at or above 0.05? CCOC(=O)C[C@H]1[C@H](OC(=O)c2cc3ccccc3oc2=O)[C@@H](NC(=O)c2ccc(-c3ccccc3)cc2)c2cc(OCCCO)ccc2N1C(=O)c1ccccc1
Result :: NOT MET

Query :: Reported z-score at or above 0.05? COC(=O)[C@@]1(Cc2ccc(F)cc2)[C@H]2c3cc(C(=O)N(C)C)n(CCc4ccc(O)c(OC)c4)c3C[C@H]2CN1C(=O)c1ccccc1
Result :: NOT MET

Query :: Reported z-score at or above 0.05? O=C(NCC(F)(F)F)[C@@H]1c2ccccc2C(=O)N(Cc2ccccc2C(F)(F)F)[C@H]1c1ccc(CO)cc1
Result :: MET

Query :: Reported z-score at or above 0.05? COCCOC(=O)N1C(=O)[C@@]2(c3cc(C#Cc4ccc(OC)cc4)ccc31)[C@H](C(=O)Nc1nc3ccccc3s1)[C@H]1C(=O)O[C@H](c3ccccc3)[C@H](c3ccccc3)N1[C@@H]2c1ccc(OCCO)cc1
Result :: NOT MET

Query :: Reported z-score at or above 0.05? [N-]=[N+]=Nc1ccccc1C[C@]1(C(N)=O)N=C(c2ccc(OCCCO)cc2)O[C@H]1c1ccccc1N=[N+]=[N-]
Result :: NOT MET

----------
Listed next: entries and their corresponding composite z-score.
Test system: Wnt5a (protein binding on small-molecule microarray)
Experiment: Wnt5a binders on small-molecule microarray, primary screen, biophysical, 635/667 nm fluorescence (AID 1142);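 note: fluorescence read at 667 nm with signal to noise per printed feature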
Conditions: 635 nm fluorescence, higher = more signal
Output: the number by itself.

Use the examples below as a reference point.
# COMPOUND, composite z-score
rows = [
    ("CCOC(=O)C[C@H]1[C@H](OC(=O)c2cc3ccccc3oc2=O)[C@@H](NC(=O)c2ccc(-c3ccccc3)cc2)c2cc(OCCCO)ccc2N1C(=O)c1ccc2ccccc2n1", 0.355),
    ("O=C(CS)NCCCCCCNC(=O)[C@H]1C[C@H]2C(=O)N[C@@H](Cc3ccccc3)C(=O)N2[C@H]1c1ccc(O)cc1", 0.491),
    ("CN(C)c1ccc(C(O)C2C=CC3C(=O)N(c4ccccc4)C(=O)C3N2Nc2ccc([N+](=O)[O-])cc2)cc1 (stereo not given)", 0.0074),
    ("COCCCNC(=O)[C@@]1(Sc2ccc(C)cc2)CC(=O)N(C2CCCCC2)[C@@H]1c1ccc(CO)cc1", 0.0421),
    ("C=C(/C(=C/C[C@H](OC(C)=O)c1cccc(OCCO)c1)c1cnc2ccccc2c1)C(C)C", 0.217),
]

Query :: Name the recorded composite z-score for COCC1=C2[C@@H](CCc3ccccc3)OB(O)C[C@@H]2[C@@H]2C(=O)C=CC(=O)[C@@H]2C1 .
Result :: 0.0021

Query :: Name the recorded composite z-score for C[C@@H]1NC(=O)[C@@]23C(=O)N[C@@H](Cc4ccccc4)C2[C@H](C)[C@@]2(C)O[C@H]2C3/C=C/C/C=C\CNC(=O)[C@@H]2CCCN2C1=O (stereo not given in full) .
Result :: -0.0872

Query :: Name the recorded composite z-score for COCCCNC(=O)[C@@]1(Cc2ccccc2CN=[N+]=[N-])N=C(c2ccc(OCCCO)cc2)O[C@H]1c1ccccc1 .
Result :: 0.919

Query :: Name the recorded composite z-score for COCCOC(=O)N1C(=O)[C@@]2(c3cc(C#CCCO)ccc31)[C@H](c1ccccc1OCCO)N1[C@H](c3ccccc3)[C@H](c3ccccc3)OC(=O)[C@H]1[C@@H]2C(=O)Nc1nc2ccccc2s1 .
Result :: 0.138

Query :: Name the recorded composite z-score for Cc1ccc(S[C@]2(C(=O)NCC(F)(F)F)CC(=O)N(Cc3ccccc3)[C@@H]2c2ccc(CO)cc2I)cc1 .
Result :: 0.0543

Query :: Name the recorded composite z-score for CN1C(=O)C2C=CC(C(O)c3ccc(F)cc3)N(Nc3ccccc3)C2C1=O (stereo not given) .
Result :: -0.126

Query :: Name the recorded composite z-score for Cn1cccc1C(O)C1C=CC2C(=O)NC(=O)C2N1Nc1ccc(Cl)cc1Cl (stereo not given) .
Result :: 0.0792

Query :: Name the recorded composite z-score for [N-]=[N+]=NCc1ccccc1[C@H]1OC(c2ccc(OCCCO)cc2)=N[C@@]1(CCS(=O)(=O)c1ccccc1)C(=O)N1CCCCC1 .
Result :: 0.526

Query :: Name the recorded composite z-score for CC1CC/C=C\[C@H]2OC34C=CCN(c5ccc(Cl)cc5)C(=O)[C@H]3N(CCCCCO)C(=O)[C@]4(C)C2C(=O)O1 (stereo not given in full) .
Result :: -0.793

Query :: Name the recorded composite z-score for COc1ccc([Si](C)(C)[C@H]2[C@H](CCO)O[C@@]3(C(=O)N(Cc4cccc(N5C(=O)COc6ccccc65)c4)c4ccccc43)[C@@H]2C)cc1 .
Result :: -0.285
